Molecular target: Adenosine receptor A1 (Homo sapiens) (UniProt P30542)
Sequence (P30542 whole entry): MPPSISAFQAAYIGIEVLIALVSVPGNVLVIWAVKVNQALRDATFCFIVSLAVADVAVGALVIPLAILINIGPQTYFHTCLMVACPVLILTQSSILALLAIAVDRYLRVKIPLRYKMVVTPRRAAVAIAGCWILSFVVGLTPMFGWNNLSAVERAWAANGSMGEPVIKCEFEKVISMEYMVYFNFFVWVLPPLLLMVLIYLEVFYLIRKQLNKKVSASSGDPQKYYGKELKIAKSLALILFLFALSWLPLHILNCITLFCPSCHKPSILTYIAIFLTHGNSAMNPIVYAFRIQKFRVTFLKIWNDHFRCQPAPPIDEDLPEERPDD
Assay: Percentage of response to 10 uM of PD-81723 on CHO cells expressing the cloned human A1-adenosine receptor at 10 uM; An increase of cAmp content of cells
Format: functional, cell-based
value.type: Response

Examples with their reported Response follow.
>>> recorded_measurement("Nc1sc2c(c1C(=O)c1ccc(-c3ccccc3)cc1)CCNC2")
"Increased cAMP"
>>> recorded_measurement("CCOC(=O)CN1CCc2c(sc(N)c2C(=O)c2ccccc2)C1")
"Increased cAMP"
>>> recorded_measurement("CCOC(=O)CN1CCc2c(sc(N)c2C(=O)c2ccc(Cl)cc2)C1")
"Increased cAMP"
>>> recorded_measurement("Nc1sc2c(c1C(=O)c1ccc(Cl)cc1)CCN(Cc1ccccc1)C2")
"Increased cAMP"
>>> recorded_measurement("Cc1ccc(S(=O)(=O)N2CCc3c(sc(N)c3C(=O)c3ccccc3)C2)cc1")
"Increased cAMP"
>>> recorded_measurement("Nc1sc2c(c1C(=O)c1ccc(Cl)cc1)CCN(CCc1ccccc1)C2")
"Increased cAMP"
>>> recorded_measurement("Nc1sc2c(c1C(=O)c1ccc(Cl)cc1)CCN(CCc1ccc([N+](=O)[O-])cc1)C2")
"Increased cAMP"
>>> recorded_measurement("Nc1sc2c(c1C(=O)c1ccc(Cl)cc1)CCN(C(=O)OCc1ccccc1)C2")
"Increased cAMP"

# Response measured on Adenosine receptor A1 (Homo sapiens) (UniProt P30542) for item Nc1sc2c(c1C(=O)c1ccccc1)CCN(C(=O)OCc1ccccc1)C2 = Increased cAMP

Record Nc1sc2c(c1C(=O)c1ccc(F)cc1)CCN(C(=O)OCc1ccccc1)C2 has Adenosine receptor A1 (Homo sapiens) (UniProt P30542) Response equal to Increased cAMP

----------
Here, each record is paired with measured Response data.
Target: Adenosine receptor A1 (Homo sapiens)
Assay: Percentage of response to 10 uM of PD-81723 on CHO cells expressing the cloned human A1-adenosine receptor at 1 uM concentration
Type: functional, cell-based
// return numeric value only (unit: %, not printed)

>>> recorded_measurement("Nc1sc2c(c1C(=O)c1ccc(F)cc1)CCCC2")
43
>>> recorded_measurement("Nc1sc2c(c1C(=O)c1ccccc1)CCCC2")
48
>>> recorded_measurement("Nc1sc2c(c1C(=O)c1cccc(C(F)(F)F)c1)CCN(Cc1ccccc1)C2")
41
>>> recorded_measurement("Nc1sc2c(c1C(=O)c1ccc(F)cc1)CCC2")
43
>>> recorded_measurement("Nc1sc2c(c1C(=O)c1ccc(Cl)cc1)CCCCCC2")
39

Looking up Nc1sc2c(c1C(=O)c1ccc(-c3ccccc3)cc1)CCCC2 , I found its Response recorded as 79

// Response lookup, compound = Nc1sc2c(c1C(=O)c1ccccc1)CCN(CCc1ccc([N+](=O)[O-])cc1)C2 , result: 13

The compound listed as Nc1sc2c(c1C(=O)c1ccc(F)cc1)CCCCC2 has a reported Response of 36

Response in this record for Nc1sccc1C(=O)c1ccc(Cl)cc1 : 8

// field: Response; key: Nc1sc2c(c1C(=O)c1ccc(Br)cc1)CCCC2 ; value = 67

response.value for Cc1sc(N)c(C(=O)c2ccc(Cl)cc2)c1C (field: Response) = 52

Per the records, this compound ( Nc1sc2c(c1C(=O)c1ccc(-c3ccccc3)cc1)CCN(C(=O)OCc1ccccc1)C2 ) has Response equal to 6

Lab note: Nc1sc2c(c1C(=O)c1ccc(Cl)cc1)CCCC2 gave Response of 58

The reported measurements were obtained from ChEMBL document CHEMBL1133137.
